Would you kindly list fold induction at 1 µM for each of these compounds?
System: SCN1A mRNA
test_summary: Upregulation of SCN1A mRNA in primary human skin fibroblasts carrying a Dravet-associated mutation (real time PCR)
Format: cell-based
condition: Homo sapiens, Skin fibroblast, compound 1 uM, 24-48 h, 18S-normalized vs vehicle (DMSO), average upregulation, read-out: fold increase in SCN1A mRNA levels, SCN1A fibroblasts, Avg
Counter-ions that a name gives are not always drawn.
Write the value as a bare number.

INPUT: Please report the recorded fold induction at 1 µM for COC(=O)C1=C(C)NC(C)=C(C(=O)OC2CCCN(Cc3ccccc3)C2)C1c1cccc([N+](=O)[O-])c1 (stereo not drawn) [Benidipine] .
OUTPUT: 3.01

INPUT: What about this compound? COc1ccc(CN2CCN(C(c3ccc(F)cc3)c3ccc(F)cc3)CC2)c(OC)c1OC [Lomerizine]
OUTPUT: 2.39

INPUT: Could you do the same for CCc1nn(CCCN2CCN(c3cccc(Cl)c3)CC2)c(=O)n1CCOc1ccccc1 [Nefazadone, monohydrochloride] , please?
OUTPUT: 2.39
